Assay: gradient 5% acetonitrile 3 min, to 50% in 2 min, to 85% in 15 min, held 3 min, 100 µL/min
Conditions: column: Zorbax Extend-C18 2.1 x 50 mm; eluents: water / acetonitrile, 0.1% formic acid
Binary classification by RP-LC retention time, with 700 s as an inclusive lower bound for True; all other cases are False.

Quick check: does `O=C([C@@H]1C[C@H](Oc2cccnc2)CN1C(=O)C1CCCC1)N1CCCC1` have RP-LC retention time greater than or equal to 700 s?
False

Quick check: does `CCCc1c(C(=O)O)nnn1-c1ccc(Cl)cc1` have RP-LC retention time greater than or equal to 700 s?
True

Quick check: does `COc1ccccc1N1CCN(c2ncc(S(=O)(=O)c3ccc(C(C)C)cc3)c(N)n2)CC1` have RP-LC retention time greater than or equal to 700 s?
True

Quick check: does `CCn1c(=O)c2c(cc(C)n2C)n(CC(=O)Nc2cc(Cl)ccc2OC)c1=O` have RP-LC retention time greater than or equal to 700 s?
True

Quick check: does `Cc1ccn2cc(-c3ccc(NS(=O)(=O)c4cc(C(C)C)ccc4C)cc3)nc2n1` have RP-LC retention time greater than or equal to 700 s?
True

Quick check: does `Cc1cccnc1NC(=O)C1CCN(S(=O)(=O)c2cc(C(=O)N3CCOCC3)cs2)CC1` have RP-LC retention time greater than or equal to 700 s?
False

Quick check: does O=C(CN1C(=O)c2ccccc2C1=O)NCC1CCS(=O)(=O)C1 (stereo not given) have RP-LC retention time greater than or equal to 700 s?
False

Quick check: does `Cc1ccc(F)cc1NC(=O)Cn1cnc2nc(N3CCC(C(=O)NC4CC4)CC3)sc2c1=O` have RP-LC retention time greater than or equal to 700 s?
False

Quick check: does `CCOC(=O)c1[nH]c(C)c(CCC(=O)N2CCC(C(=O)NCc3ccc(C)cc3)CC2)c1C` have RP-LC retention time greater than or equal to 700 s?
True

Quick check: does `O=C(CN1C(=O)CSc2ccc(C(=O)N3CCCCC3)cc21)NCCN1CCCCC1` have RP-LC retention time greater than or equal to 700 s?
False

Quick check: does `COc1ccc(SCCc2ccncc2)cc1` have RP-LC retention time greater than or equal to 700 s?
False

Quick check: does `Cn1cc(S(=O)(=O)N2CCCCC2)cc1C(=O)Nc1cccc(F)c1` have RP-LC retention time greater than or equal to 700 s?
True

Quick check: does `Cc1cc(SCC(=O)N2CCCc3ccccc32)nc(C)n1` have RP-LC retention time greater than or equal to 700 s?
True

Quick check: does `COc1ccc(CNC(=O)c2ccc3c(=O)n(-c4ccccc4)c(N4CCCC4)nc3c2)c(OC)c1` have RP-LC retention time greater than or equal to 700 s?
True

Quick check: does Cc1cc(C)cc(C(=O)N2CCCC(C(=O)NCCN3CCOCC3)C2)c1 (stereo not given) have RP-LC retention time greater than or equal to 700 s?
False

Quick check: does `Cc1ccc(Cl)cc1N1CCN(C(=O)c2cc3sccc3n2C)CC1` have RP-LC retention time greater than or equal to 700 s?
True

Quick check: does CC(=O)N1CCc2cc(N3CC(C(=O)Nc4cccc(Cl)c4C)CC3=O)ccc21 (stereo not given) have RP-LC retention time greater than or equal to 700 s?
True

Quick check: does `CC(C)NC(=O)c1ccc(-c2ccsc2)nc1` have RP-LC retention time greater than or equal to 700 s?
True
